Exercise: state measured IC50 for each of the compounds provided.
biological target: Calcitonin gene-related peptide type 1 receptor (Homo sapiens, UniProt O60894+Q16602); test: Antagonist activity at human CGRP receptor expressed in human SK-N-MC cells assessed as inhibition of CGRP-stimulated cAMP production; type: functional, cell-based
Sequence (Q16602 whole entry, one chain of several): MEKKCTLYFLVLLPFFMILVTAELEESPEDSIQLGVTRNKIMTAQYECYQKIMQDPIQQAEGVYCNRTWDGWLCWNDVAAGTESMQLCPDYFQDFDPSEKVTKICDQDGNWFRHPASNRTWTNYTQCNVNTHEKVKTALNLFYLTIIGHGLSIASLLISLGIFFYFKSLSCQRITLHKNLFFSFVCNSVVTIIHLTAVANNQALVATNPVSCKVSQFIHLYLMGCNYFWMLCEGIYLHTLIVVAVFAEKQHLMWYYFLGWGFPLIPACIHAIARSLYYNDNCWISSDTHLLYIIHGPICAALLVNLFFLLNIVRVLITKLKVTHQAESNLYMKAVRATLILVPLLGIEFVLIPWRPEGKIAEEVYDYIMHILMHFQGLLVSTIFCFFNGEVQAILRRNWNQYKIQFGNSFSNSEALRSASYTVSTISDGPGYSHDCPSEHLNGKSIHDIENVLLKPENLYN
Could you kindly put the unit after your number?

Known results for compounds:
Cc1cc(CC(CC(=O)N2CCC(c3cc4ccccc4[nH]c3=O)CC2)C(=O)N2CCC(N3CCCCC3)CC2)cc2cn[nH]c12 (racemic) = 0.12 nM
O=C(C[C@H](NCc1ccc2[nH]ncc2c1)C(=O)N1CCC(N2CCCCC2)CC1)N1CCC(N2Cc3ccccc3NC2=O)CC1 = 300 nM

Hello, I would appreciate it if you could give IC50 for each entry below.
1. O=C(CC(Cc1ccc2[nH]ncc2c1)C(=O)N1CCC2(CC1)OCCO2)N1CCC(N2Cc3ccccc3NC2=O)CC1 (racemic)
2. Cc1cc(CC(CC(=O)N2CCC3(CC2)OC(=O)Nc2ccccc23)C(=O)N2CCC(N3CCCCC3)CC2)cc2cn[nH]c12 (racemic)

1. 320 nM
2. 0.7 nM

Hello, I would appreciate it if you could give IC50 for each entry below.
1. Cc1cc(CC(CC(=O)N2CCC(n3cc(-c4ccccc4)[nH]c3=O)CC2)C(=O)N2CCC(N3CCCCC3)CC2)cc2cn[nH]c12 (racemic)
2. O=C1Nc2ccccc2C2(CCN(C(=O)CC(Cc3ccc4[nH]ncc4c3)C(=O)N3CCC(N4CCCCC4)CC3)CC2)O1 (racemic)
3. O=C(C[C@H](Nc1ccc2[nH]ccc2c1)C(=O)N1CCC(N2CCCCC2)CC1)N1CCC(N2Cc3ccccc3NC2=O)CC1
4. O=C(Nc1ccccc1Cl)N[C@@H](CC(=O)N1CCC(N2Cc3ccccc3NC2=O)CC1)C(=O)N1CCC(N2CCCCC2)CC1
5. Cc1cc(CC(CC(=O)N2CCC3(CC2)NC(=O)Nc2ccccc23)C(=O)N2CCC(N3CCCCC3)CC2)cc2cn[nH]c12 (racemic)

0.049 nM
53 nM
59 nM
100 nM
0.35 nM
